Data origin: patent US20180185450A1

study_target: human glucagon receptor (human, UniProt P47871 26-477)
Sequence (P47871 26-477): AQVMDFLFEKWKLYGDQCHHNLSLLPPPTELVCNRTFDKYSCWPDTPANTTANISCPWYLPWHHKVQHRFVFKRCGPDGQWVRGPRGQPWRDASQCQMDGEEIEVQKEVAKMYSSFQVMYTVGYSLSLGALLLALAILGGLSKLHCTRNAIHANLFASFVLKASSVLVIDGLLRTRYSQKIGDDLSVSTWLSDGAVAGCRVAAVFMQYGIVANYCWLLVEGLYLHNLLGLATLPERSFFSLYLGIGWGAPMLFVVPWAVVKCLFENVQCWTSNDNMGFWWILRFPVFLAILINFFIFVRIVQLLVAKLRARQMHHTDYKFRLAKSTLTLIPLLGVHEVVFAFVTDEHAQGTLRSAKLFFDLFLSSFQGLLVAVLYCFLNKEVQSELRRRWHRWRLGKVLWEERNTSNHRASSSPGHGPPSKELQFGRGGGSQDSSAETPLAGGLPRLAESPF
protocol: cell-based or functional assay
Numbered stars: 1 amine (or outer) side, 2 acyl side, 3 side chain; on linkers, the order of the positions; unused ones are H or OH. Square brackets hold non-standard residues; d marks the D form. Side chains are listed from the residue outwards. Ends that are not written are not given here. γGlu = O=C(O)[C@H](CCC(=O)[*:2])N[*:1]; X70 = not defined here; x53 = not defined here; Aib = CC(C)(N)C(=O)O
# EC50 hGlucagon-R (cAMP) annotations
readout_type: EC50 hGlucagon-R (cAMP) (pM)

H[Aib]QGTFTSDLSKQK(x53)ESQAAQDFIEWLKAGGPSSGAPPPS-NH2 (reading uncertain) [SEQ ID NO: 43] | 443
HXQGTFTSDLSKQKDSRRAQDFIEWLKNGGPSSGAPPPS (dSer at 2; K(γE-x53) at 14; C-terminal NH(n-Propyl)) [SEQ ID NO: 10] | 1.7
HXQGTFTSDLSKQKESRRAQLFIEWLKAGGPSSGAPPPS (dSer at 2; K(x53) at 14; C-terminal NH2) [SEQ ID NO: 69] | 52.4
H[Aib]QGTFTSDLSKQK([γGlu-x53])ESQAAQEFIEWLKAGGPSSGAPPPS-NH2 (reading uncertain) [SEQ ID NO: 38] | 53.1
HXQGTFTSDLSKQKESQAAQDFIEWLKAGGPSSGAPPPS (dSer at 2; K(x53) at 14; C-terminal NH2) [SEQ ID NO: 42] | 199
HXQGTFTSDLSKQKESQAAQEFIEWLKAGGPSSGAPPPS (dSer at 2; K(γE-x53) at 14; C-terminal NH2) [SEQ ID NO: 37] | 12.9
HXQGTFTSDLSKQKESRRAXDFIEWLKNGGPSSGAPPPS (dSer at 2; K(x53) at 14; Aib at 20; C-terminal NH2) [SEQ ID NO: 119] | 41.2
HXQGTFTSDLSKQKDEEAARLFIEWLKAGGPSSGAPPPS (dSer at 2; K(γE-x53) at 14; C-terminal NH2) [SEQ ID NO: 221] | 9.2
HXQGTFTSDLSKQKDSRRAXDFIEWLKAGGPSSGAPPPS (dSer at 2; K(γE-x53) at 14; Aib at 20; C-terminal NH2) [SEQ ID NO: 67] | 3
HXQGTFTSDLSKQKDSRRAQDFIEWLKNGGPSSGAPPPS (dSer at 2; K(γE-x53) at 14; C-terminal N(morpholin)) [SEQ ID NO: 102] | 1.1
HXQGTFTSDLSKQKDSRRAQDFIEWLKNTGPSSGAPPPS (dSer at 2; K(γE-x53) at 14; C-terminal NH2) [SEQ ID NO: 92] | 1
HXQGTFTSDLSKQKESXAAXLFIEWLKAGGPSSGAPPPS (dSer at 2; K(γE-x53) at 14; Aib at 17; Aib at 20; C-terminal NH2) [SEQ ID NO: 12] | 263
HXHGTFTSDLSKQKDEEAARLFIEWLKAGGPSSGAPPPS (dSer at 2; K(γE-X70) at 14; C-terminal NH2) [SEQ ID NO: 220] | 2.3
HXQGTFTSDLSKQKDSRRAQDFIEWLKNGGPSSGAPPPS (dSer at 2; K(γE-x53) at 14; C-terminal NH[(CH2)15-CH3]) [SEQ ID NO: 106] | 10.5
HXQGTFTSDLSKQKESRAAQEFIEWLKAGGPSSGAPPPS (dSer at 2; K(γE-x53) at 14; C-terminal NH2) [SEQ ID NO: 47] | 10.3
HXQGTFTSDLSKQKESRRAQDFIEWLKXGGPSSGAPPPS (dSer at 2; K(γE-x53) at 14; Aib at 28; C-terminal NH2) [SEQ ID NO: 79] | 7.5
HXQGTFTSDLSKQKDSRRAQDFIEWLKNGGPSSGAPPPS (dSer at 2; K(γE-x53) at 14; C-terminal NH[(CH2)13-CH3]) [SEQ ID NO: 110] | 7.2
HXQGTFTSDLSKQKESRRAQDFIEWLKKGGPSSGAPPPS (dSer at 2; K(γE-x53) at 14; C-terminal NH2) [SEQ ID NO: 85] | 10.4
HXQGTFTSDLSKQKESRRAQDFIEWLKAGGPSSGAPPPS (dSer at 2; K(γE-x53) at 14; C-terminal NH2) [SEQ ID NO: 4] | 4
H[Aib]QGTFTSDLSKQK([γGlu-X70])DEEAARLFIEWLKAGGPSSGAPPPS-NH2 (reading uncertain) [SEQ ID NO: 214] | 16
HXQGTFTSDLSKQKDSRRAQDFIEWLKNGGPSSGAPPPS (dSer at 2; K(γE-x70) at 14; C-terminal NH2) [SEQ ID NO: 8] | 2.3
H[Aib]QGTFTSDLSKQK([γGlu-x53])ESRRAQDFIEWLKNGGPSSGAPPPS-NH2 (reading uncertain) [SEQ ID NO: 117] | 16.5
HXQGTFTSDLSKQKDSRRAQDFIEWLKAGGPSSGAPPPS (dSer at 2; K(γE-x53) at 14; C-terminal NH2) [SEQ ID NO: 74] | 1.3
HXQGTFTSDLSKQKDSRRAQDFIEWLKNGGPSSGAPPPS (dSer at 2; K(γE-x69) at 14; C-terminal NH2) [SEQ ID NO: 90] | 3.7
